# studySystem: HiBiT tagged Wee1 (Homo sapiens, UniProt P30291)
# Sequence (P30291 whole entry): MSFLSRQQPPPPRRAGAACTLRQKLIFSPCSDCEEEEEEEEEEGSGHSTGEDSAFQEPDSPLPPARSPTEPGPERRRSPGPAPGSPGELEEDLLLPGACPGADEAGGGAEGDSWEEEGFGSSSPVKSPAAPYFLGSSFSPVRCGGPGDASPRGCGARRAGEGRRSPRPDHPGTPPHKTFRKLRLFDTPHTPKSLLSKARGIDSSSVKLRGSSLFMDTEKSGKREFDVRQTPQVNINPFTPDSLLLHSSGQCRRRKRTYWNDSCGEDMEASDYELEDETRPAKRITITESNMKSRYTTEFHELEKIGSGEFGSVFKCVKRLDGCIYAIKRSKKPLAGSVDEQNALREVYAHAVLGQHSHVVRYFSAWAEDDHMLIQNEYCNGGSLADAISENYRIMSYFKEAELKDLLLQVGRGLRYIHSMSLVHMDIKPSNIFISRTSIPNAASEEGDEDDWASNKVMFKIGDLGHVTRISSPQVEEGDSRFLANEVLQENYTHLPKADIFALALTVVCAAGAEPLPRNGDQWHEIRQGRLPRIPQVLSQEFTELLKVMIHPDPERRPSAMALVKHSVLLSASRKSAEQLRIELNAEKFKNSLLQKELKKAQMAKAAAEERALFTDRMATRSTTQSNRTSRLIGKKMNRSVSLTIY
# runDescription: Wee1 protein degradation assay (HiBiT assay)
# Format: cell-based
# conditionContext: engineered HT-1080 cells, 20 hours
Give DC50 for every item shown.

Query: Fill in the blank: the reported DC50 of C[C@@]1(O)CC/C=C\Cn2c(=O)c3cnc(Nc4ccc(N5CCN(CC6CCN(c7ccc(NC8CCC(=O)NC8=O)cc7F)CC6)CC5)cc4)nc3n2-c2cccc1n2 (single isomer, unassigned) is ____.
Reply: < 100 nM

Query: Need DC50 of `C=CCn1c(=O)c2cnc(Nc3ccc(N4CCN(CC5CCN(c6ccc7c(N8CCC(=O)NC8=O)nn(C)c7c6)CC5)CC4)cc3)nc2n1-c1ccc2c(n1)[C@](C)(O)CC2` , thanks.
Reply: < 100 nM

Query: So what's the measured DC50 for this one? C=CCn1c(=O)c2cnc(Nc3ccc(N4CCC(N5CC6(CN(c7ccc(NC8CCC(=O)NC8=O)cc7F)C6)C5)CC4)cc3)nc2n1-c1cccc(C(C)(C)O)n1 (stereo not drawn)
Reply: < 100 nM

* * *

# studySystem: HiBiT tagged Wee1 (Homo sapiens, UniProt P30291)
# runDescription: Wee1 protein degradation assay (HiBiT assay)
# Format: cell-based
# conditionContext: engineered HT-1080 cells, 20 hours; maximum percentage of Wee1 degradation; read-out: HiBiT Wee1: Dmax
propertyMeasured: Dmax

Query: If you can, please state the reported Dmax value of C=CCn1c(=O)c2cnc(Nc3ccc(N4CCC5(CC4)CCN(C4CN(c6ccc(NC7CCC(=O)NC7=O)cc6F)C4)CC5)cc3)nc2n1-c1ccc2c(n1)[C@@](O)(CC)CC2 (stereo partly drawn) .
Reply: > 75%

Query: Give its Dmax value. Item: C=CCn1c(=O)c2cnc(Nc3ccc(N4CCN(CC5CCN(c6ccc(NC7CCC(=O)NC7=O)cc6F)CC5)CC4)cc3)nc2n1-c1ccc(=O)n(C(C)C)n1 (stereo not drawn)
Reply: > 75%

Query: Using the record for C=CCn1c(=O)c2cnc(Nc3ccc(N4CCC(CN5CCC(c6cccc7c6n(C)c(=O)n7C6CCC(=O)NC6=O)CC5)CC4)cc3)nc2n1-c1cccc(C(C)(C)O)n1 (stereo not drawn) , report its Dmax.
Reply: 50 to 75%

Query: Any idea what Dmax was measured for C=CCn1c(=O)c2cnc(Nc3ccc(N4CCN(CC5CCN(c6ccc(NC7CCC(=O)NC7=O)cc6F)CC5)CC4)c(C)c3)nc2n1-c1ccc2c(n1)[C@@](C)(O)CC2 (stereo partly drawn) ?
Reply: > 75%

Query: Suppose we examine the compound C=CCn1c(=O)c2cnc(Nc3ccc(C4CCN(CC5CCN(c6cccc7c6n(C)c(=O)n7C6CCC(=O)NC6=O)CC5)CC4)cc3)nc2n1-c1ccc2c(n1)[C@@](O)(CC)CC2 (stereo partly drawn) ; what Dmax value has been reported?
Reply: 50 to 75%

Query: Param item = C=CCn1c(=O)c2cnc(Nc3ccc(N4CCC(CN5CCN(c6cccc7c(C8CCC(=O)NC8=O)nn(C)c67)CC5)CC4)cc3)nc2n1-c1cccc(C(C)(C)O)n1 (stereo not drawn) ; retrieve measured Dmax.
Reply: > 75%

Query: I'd like to know its Dmax. The compound in question is O=C1CCC(N2C(=O)c3ccc(N4CCC(CN5CCN(c6ccc(Nc7ncc8c(=O)n(-c9c(Cl)cccc9Cl)c9nccn9c8n7)cc6)CC5)CC4)cc3C2=O)C(=O)N1 (stereo not drawn)
Reply: 50 to 75%

Query: What value of Dmax has been recorded for this entry: C=CCn1c(=O)c2cnc(Nc3ccc(N4CCN(CC5CCN(c6ccc(NC7CCC(=O)NC7=O)cc6F)CC5)CC4)cc3)nc2n1-c1ccc2c(n1)[C@@](O)(CC)CC2 (single isomer, unassigned) [Compound 150-A]
Reply: > 75%

Query: Returns the measured Dmax for the input compound. Input: C=CCn1c(=O)c2cnc(Nc3ccc(N4CCC(CN5CCN(c6ccc(NC7CCC(=O)NC7=O)cc6F)CC5)CC4)cc3)nc2n1-c1ccc2c(n1)[C@](C)(O)CC2 (single isomer, unassigned)
Reply: 50 to 75%

* * *

# studySystem: HiBiT tagged Wee1 (Homo sapiens, UniProt P30291)
# runDescription: Wee1 protein degradation assay (HiBiT assay)
# Format: cell-based
# conditionContext: engineered HT-1080 cells, 20 hours
propertyMeasured: DC50

Query: Can you look up the measured DC50 of C=CCn1c(=O)c2cnc(Nc3ccc(N4CCN(C5CCN(c6ncc(NC7CCC(=O)NC7=O)cc6F)CC5)CC4)cc3)nc2n1-c1ccc2c(n1)[C@@](O)(CC)CC2 (some centres unmarked) [Compound 182] for me?
Reply: < 100 nM

Query: Entry C=CCn1c(=O)c2cnc(Nc3ccc(N4CCN(C[C@@H]5CCN(c6ccc7c(c6)C(=O)N(C6CCC(=O)NC6=O)C7=O)C5)CC4)cc3)nc2n1-c1cccc(C(C)(C)O)n1 (some centres unmarked) [Compound 38] : reported DC50 = ?
Reply: < 100 nM

Query: Any idea what its DC50 is? The compound is C=CCn1c(=O)c2cnc(Nc3ccc(N4CCN(CC5CCN(c6ncc(NC7CCC(=O)NC7=O)cc6F)CC5)[C@H](C)C4)cc3)nc2n1-c1ccc2c(n1)[C@@](O)(CC)CC2 (some centres unmarked) [Compound 193]
Reply: < 100 nM

Query: DC50 lookup needed for O=C1CCC(N2C(=O)c3ccc(N4CCC(CN5CCc6ccc(Nc7ncc8c(=O)n(-c9c(Cl)cccc9Cl)c9nccn9c8n7)cc6C5)CC4)cc3C2=O)C(=O)N1 (centres unmarked) [Compound 5] , thanks.
Reply: > 1000 nM

Query: Suppose we examine the compound C=CCn1c(=O)c2cnc(Nc3ccc(N4CCN(CC5CCN(c6ccc(NC7CCC(=O)NC7=O)cc6F)CC5)CC4)cc3)nc2n1-c1ccc2c(n1)[C@](C)(O)CC2 (some centres unmarked) [Compound 112] ; what DC50 value has been reported?
Reply: < 100 nM

Query: Requested read-out: DC50. Entry: C=CCn1c(=O)c2cnc(Nc3ccc(C4CCN(C5CCN(c6ccc7c(c6)C(=O)N(C6CCC(=O)NC6=O)C7=O)C5)CC4)cc3)nc2n1-c1cccc(C(C)(C)O)n1 (centres unmarked) [Compound 39]
Reply: 100 to 1000 nM

Query: Requested read-out: DC50. Entry: O=C1CCC(N2C(=O)c3ccc(N4CCC(CN5CCC(c6ccc(Nc7ncc8c(=O)n(-c9c(Cl)cccc9Cl)c9nccn9c8n7)cc6)CC5)CC4)cc3C2=O)C(=O)N1 (centres unmarked) [Compound 14]
Reply: < 100 nM

Query: Recorded DC50 for C=CCn1c(=O)c2cnc(Nc3ccc(N4CCN(CC5CN(c6ccc7c(c6)C(=O)N(C6CCC(=O)NC6=O)C7=O)C5)CC4)cc3)nc2n1-c1cccc(C(C)(C)O)n1 (centres unmarked) [Compound 10] , please?
Reply: < 100 nM

* * *

# studySystem: HiBiT tagged Wee1 (Homo sapiens)
# runDescription: Wee1 protein degradation assay (HiBiT assay)
# Format: cell-based
# conditionContext: engineered HT-1080 cells, 20 hours
Kindly supply the reported DC50 values for the records listed here.

Query: # input molecule: C=CCn1c(=O)c2cnc(Nc3ccc(N4CCN(CC5(F)CCN(c6ccc(NC7CCC(=O)NC7=O)cc6F)CC5)CC4)cc3)nc2n1-c1ccc2c(n1)[C@@](O)(CC)CC2 (stereo partly drawn) ; wanted: its DC50
Reply: < 100 nM

Query: Name the reported DC50 value associated with the molecule `C=CCn1c(=O)c2cnc(Nc3ccc(N4CCC(CN5CCN(c6ccc7c(N8CCC(=O)NC8=O)nn(C)c7c6)CC5)CC4)cc3)nc2n1-c1ccc2c(n1)[C@@](C)(O)CC2`
Reply: < 100 nM

Query: May I ask what DC50 has been recorded for C=CCn1c(=O)c2cnc(Nc3ccc(N4CCC(CN5CCN(c6ccc(NC7CCC(=O)NC7=O)cc6F)CC5)CC4)cc3)nc2n1-c1cccc(C(C)(C)O)n1 (stereo not drawn) [Compound 71] ?
Reply: < 100 nM

* * *

# studySystem: HiBiT tagged Wee1 (Homo sapiens)
# runDescription: Wee1 protein degradation assay (HiBiT assay)
# Format: cell-based
# conditionContext: engineered HT-1080 cells, 20 hours; maximum percentage of Wee1 degradation; read-out: HiBiT Wee1: Dmax
propertyMeasured: Dmax

Query: Dmax of `COc1ccc(C(=O)N2CCC(OC3CCN(Cc4ccc(Nc5ncc6c(=O)n(-c7c(Cl)cccc7Cl)c7nccn7c6n5)cc4)CC3)CC2)cc1N1CCC(=O)NC1=O` on HiBiT tagged Wee1 (Homo sapiens)?
Reply: < 50%

Query: Kindly state the measured Dmax obtained for C=CCn1c(=O)c2cnc(Nc3ccc(N4CCN(C(=O)CC5(O)CCN(c6ccc(NC7CCC(=O)NC7=O)cc6F)CC5)CC4)cc3)nc2n1-c1ccc2c(n1)[C@@](O)(CC)CC2 (some centres unmarked) with HiBiT tagged Wee1 (Homo sapiens).
Reply: 50 to 75%

Query: Notebook entry, HiBiT tagged Wee1 (Homo sapiens) assay: Dmax of C=CCn1c(=O)c2cnc(Nc3ccc(N4CCC(CN(C)C5CCN(c6ccc(NC7CCC(=O)NC7=O)cc6F)CC5)CC4)cc3)nc2n1-c1cccc(C(C)(C)O)n1 (centres unmarked) = ?
Reply: > 75%

Query: Find Dmax (HiBiT tagged Wee1 (Homo sapiens)) for the entry C=CCn1c(=O)c2cnc(Nc3ccc(C4CCN(C5CCN(c6cc7c(cc6F)C(=O)N(C6CCC(=O)NC6=O)C7=O)CC5)CC4)cc3)nc2n1-c1cccc(C(C)(C)O)n1 (centres unmarked)
Reply: 50 to 75%

Query: Notebook entry, HiBiT tagged Wee1 (Homo sapiens) assay: Dmax of C=CCn1c(=O)c2cnc(Nc3ccc(N4CCN(C5CCN(c6ccc(NC7CCC(=O)NC7=O)cc6F)CC5)CC4)cc3)nc2n1-c1cccc(C(C)(C)O)n1 (centres unmarked) = ?
Reply: > 75%

Query: So what Dmax did C=CCn1c(=O)c2cnc(Nc3ccc(N4CCC(CN5CCC(c6ccc(NC7CCC(=O)NC7=O)cc6F)CC5)CC4)cc3)nc2n1-c1cccc(C(C)(C)O)n1 (centres unmarked) get with HiBiT tagged Wee1 (Homo sapiens)?
Reply: > 75%

Query: Form field - read-out: Dmax; system: HiBiT tagged Wee1 (Homo sapiens); submitted item: C=CCn1c(=O)c2cnc(Nc3ccc(N4CCC(N5CC6(CN(c7ccc(NC8CCC(=O)NC8=O)cc7F)C6)C5)CC4)cc3)nc2n1-c1cccc(C(C)(C)O)n1 (centres unmarked)
Reply: > 75%

Query: GET /values?readout=Dmax&system=HiBiT tagged Wee1 (Homo sapiens)&item= Cc1cc(Nc2ncc3c(n2)N(C)CN(c2c(Cl)cccc2Cl)C3=O)ccc1C1CCN(CC2CCN(c3ccc4c(c3)C(=O)N(C3CCC(=O)NC3=O)C4=O)CC2)CC1 (centres unmarked)
Reply: < 50%

Query: Value wanted: Dmax (HiBiT tagged Wee1 (Homo sapiens)) of entry C[C@@]1(O)CC/C=C\Cn2c(=O)c3cnc(Nc4ccc(N5CCN(CC6CCN(c7ccc(NC8CCC(=O)NC8=O)cc7F)CC6)CC5)cc4)nc3n2-c2cccc1n2 (single isomer, unassigned)
Reply: 50 to 75%

Query: Query Dmax on HiBiT tagged Wee1 (Homo sapiens) for C=CCn1c(=O)c2cnc(Nc3ccc(C4CCN(CC5CCN(c6cccc7c6n(C)c(=O)n7C6CCC(=O)NC6=O)CC5)CC4)cc3)nc2n1-c1cccc(C(C)(C)O)n1 (centres unmarked)
Reply: 50 to 75%

Query: Dmax of `COc1ccc(C(=O)N2CCC(CCN3CCC(c4ccc(Nc5ncc6c(=O)n(-c7c(Cl)cccc7Cl)c7nccn7c6n5)cc4)CC3)CC2)cc1N1CCC(=O)NC1=O` on HiBiT tagged Wee1 (Homo sapiens)?
Reply: 50 to 75%
